Below: a set of entries, each annotated with reported log10 of koff.
Target: T1, Fc fused human IL-18BP isoform a (IL-18BPa) (human, UniProt O95998 31-194)
T1 construct: also called IL-18BP monomer; not shown: Fc part
T1 sequence (looked up): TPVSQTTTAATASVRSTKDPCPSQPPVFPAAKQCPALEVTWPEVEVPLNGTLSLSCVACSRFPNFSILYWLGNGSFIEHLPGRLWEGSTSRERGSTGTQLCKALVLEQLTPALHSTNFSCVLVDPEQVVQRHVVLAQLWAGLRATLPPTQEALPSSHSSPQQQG
Assay: SPR, Fc-IL-18BPa captured, 1:1 model
Method: The interaction of the wild type and of modified IL-18 polypeptides with human IL-18 receptor subunits were measured with Surface Plasmon Resonance (SPR) technology. […] The kinetic binding of the IL-18 analytes were measured with a Biacore 8K instrument in two-fold serial dilutions starting at 1 μM down to 0.98 nM. […]
All values: log10 koff [s⁻¹].

Recorded results for 5 binders are shown here.
Q: What measured log10 of koff goes with Modified IL-18 polypeptide of SEQ ID NO: 23 (K53A, T63A, C38S, C68S, C76S, C127S, K70C) (ligand) YFGKLESKLSVIRNLNDQVLFIDQGNRPLFEDMTDSDSRDNAPRTIFIISMYADSQPRGMAVAISVKSECISTLSSENKIISFKEMNPPDNIKDTKSDIIFFQRSVPGHDNKMQFESSSYEGYFLASEKERDLFKLILKKEDELGDRSIMFTVQNED ?
Result: -2.93

Q: Follow-up item: Modified IL-18 polypeptide of SEQ ID NO: 71 (E6K, C38S, K53A) (ligand) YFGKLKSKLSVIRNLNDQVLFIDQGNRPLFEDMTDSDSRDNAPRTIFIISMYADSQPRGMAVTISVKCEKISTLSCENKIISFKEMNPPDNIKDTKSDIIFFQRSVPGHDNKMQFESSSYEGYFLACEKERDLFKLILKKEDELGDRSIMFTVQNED
Result: -2.51

Q: Follow-up item: Modified IL-18 polypeptide of SEQ ID NO: 71 with a 30 kDa PEG attached at residue C68 (E6K, C38S, K53A, C68-30kDPEG) (ligand, 30 kDa PEG on Cys 68 (30 kDa DBCO-polyethylene glycol clicked to a bromoacetamido-PEG5-azide linker on the cysteine), also called 71 + PEG) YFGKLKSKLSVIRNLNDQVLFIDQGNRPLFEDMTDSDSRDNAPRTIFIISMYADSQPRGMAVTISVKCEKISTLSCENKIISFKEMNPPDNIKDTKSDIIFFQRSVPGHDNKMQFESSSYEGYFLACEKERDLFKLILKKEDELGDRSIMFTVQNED
Result: -2.41

Q: Follow-up item: Modified IL-18 polypeptide of SEQ ID NO: 16 (C38S, C68S, C76S, C127S, K70C) (ligand) YFGKLESKLSVIRNLNDQVLFIDQGNRPLFEDMTDSDSRDNAPRTIFIISMYKDSQPRGMAVTISVKSECISTLSSENKIISFKEMNPPDNIKDTKSDIIFFQRSVPGHDNKMQFESSSYEGYFLASEKERDLFKLILKKEDELGDRSIMFTVQNED
Result: -3.58

Q: Follow-up item: Modified IL-18 polypeptide of SEQ ID NO: 15 (C38S, C68S, C76S, C127S) (ligand) YFGKLESKLSVIRNLNDQVLFIDQGNRPLFEDMTDSDSRDNAPRTIFIISMYKDSQPRGMAVTISVKSEKISTLSSENKIISFKEMNPPDNIKDTKSDIIFFQRSVPGHDNKMQFESSSYEGYFLASEKERDLFKLILKKEDELGDRSIMFTVQNED
Result: -3.60

Turning to the following binder.
Q: What measured log10 of koff goes with Modified IL-18 polypeptide of SEQ ID NO: 70 (E6K, K53A, C38S, C76S, C127S) (ligand) YFGKLKSKLSVIRNLNDQVLFIDQGNRPLFEDMTDSDSRDNAPRTIFIISMYADSQPRGMAVTISVKCEKISTLSSENKIISFKEMNPPDNIKDTKSDIIFFQRSVPGHDNKMQFESSSYEGYFLASEKERDLFKLILKKEDELGDRSIMFTVQNED ?
Result: -2.43

Each recorded value in this set is attributed to patent US20220056091A1.
